System: Pseudomonas aeruginosa
Assay: Inhibition of Pseudomonas aeruginosa OXA-24/40 assessed as potentiation of piperacillin-induced antibacterial activity at 4 ug/ml by CLSI based broth microdilution method (reference value: > […] ug/ml)
I'd be grateful if you could share measured MIC for these entries.
Give bare numbers, in µg/mL.

These recorded examples may help you get a feel for the data.
INSERT INTO assay_data (mol_smiles, study_target, measured_result) VALUES
  ('CC1=C[C@@H](CO)N2C[C@@H]1N(OS(=O)(=O)O)C2=O', 'Pseudomonas aeruginosa', 64),
  ('CC1=C[C@@H]2CN(C(=O)N2OS(=O)(=O)O)[C@@H]1C(N)=O', 'Pseudomonas aeruginosa', 8),
  ('CC1=C[C@@H](C#N)N2C[C@@H]1N(OS(=O)(=O)O)C2=O', 'Pseudomonas aeruginosa', 8),
  ('NC(=O)[C@@H]1CC[C@@H]2CN1C(=O)N2OS(=O)(=O)O', 'Pseudomonas aeruginosa', 64);

Note: attention shifts to another entry.
Report MIC for CC1=C[C@@H](C(N)=O)N2C[C@@H]1N(OS(=O)(=O)O)C2=O tested on Pseudomonas aeruginosa.
16

* * *

Experiment: Inhibition of AmpC beta-lactamase (unknown origin) by Cheng-Prusoff equation analysis
Parameters: species or system Bacteria
endpoint label: pKi
One number for each entry, as −log10 of the molar value.

INSERT INTO results (mol_smiles, measured_result) VALUES
  ('O=C(NCB(O)O)S(=O)(=O)c1cc(Cl)cc(-c2nnn[nH]2)c1', 9.70),
  ('O=C(NCB(O)O)S(=O)(=O)c1ccnc(-c2nnn[nH]2)c1', 9.10);

Note: attention shifts to another entry.
What does the record list as pKi for O=C(NCB(O)O)S(=O)(=O)c1cc(-c2nnn[nH]2)cc(C(F)(F)F)c1 ?
10.30

* * *

Assay: Inhibition of Acinetobacter baumannii OXA-24 by spectrophotometric method
endpoint label: pKi
Give bare numbers, as −log10 of the molar value.

What does the record list as pKi for C[C@]1(COC(=O)Cc2ccc(O)c(O)c2)[C@H](C(=O)O)N2C(=O)/C(=C/c3ccccn3)[C@H]2S1(=O)=O ?
6.15

* * *

Assay: Inhibition of NDM1 (unknown origin) using nitrocefin as substrate incubated for 10 mins by UV spectra analysis
Set-up: species or system Bacteria
I'd be grateful if you could share measured pIC50 for these entries.
Give bare numbers, as −log10 of the molar value.

These recorded examples may help you get a feel for the data.
INSERT INTO results (mol_smiles, endpoint_label, measured_result) VALUES
  ('N[C@@H](CN[C@@H](CN[C@@H](CC(=O)O)C(=O)O)C(=O)O)C(=O)O', 'pIC50', 5.03),
  ('N[C@H](CN[C@H](CN[C@@H](CC(=O)O)C(=O)O)C(=O)O)C(=O)O', 'pIC50', 4.99),
  ('N[C@@H](CN[C@H](CN[C@@H](CC(=O)O)C(=O)O)C(=O)O)C(=O)O', 'pIC50', 4.90);

Provide reported pIC50 for each item, in the same order as listed.
1. N[C@@H](CN[C@@H](CN[C@H](CC(=O)O)C(=O)O)C(=O)O)C(=O)O
2. N[C@H](CN[C@@H](CN[C@@H](CC(=O)O)C(=O)O)C(=O)O)C(=O)O

4.94
4.92

* * *

Test system: Pseudomonas aeruginosa
Assay: Inhibition of Pseudomonas aeruginosa AmpC assessed as potentiation of piperacillin-induced antibacterial activity at 4 ug/ml by CLSI based broth microdilution method (reference value: > […] ug/ml)
endpoint label: MIC (µg/mL)
Answers are plain numbers, in µg/mL.

These recorded examples may help you get a feel for the data.
INSERT INTO assay_data (mol_smiles, study_target, reading_unit, measured_result) VALUES
  ('CC1=C[C@@H](CO)N2C[C@@H]1N(OS(=O)(=O)O)C2=O', 'Pseudomonas aeruginosa', 'µg/mL', 32),
  ('CC1=C[C@@H]2CN(C(=O)N2OS(=O)(=O)O)[C@@H]1C(N)=O', 'Pseudomonas aeruginosa', 'µg/mL', 2),
  ('CC1=C[C@@H](C(N)=O)N2C[C@@H]1N(OS(=O)(=O)O)C2=O', 'Pseudomonas aeruginosa', 'µg/mL', 8);

Note: attention shifts to another entry.
What does the record list as MIC for NC(=O)[C@@H]1CC[C@@H]2CN1C(=O)N2OS(=O)(=O)O ?
8
